experiment: qHTS assay for identifying genotoxic compounds that show differential cytotoxicity against isogenic chicken DT40 cell lines with known DNA damage response pathways - Rad54/Ku70 mutant cell line (AID 743015); settings: DT40 Rad54/Ku70 mutant viability, CellTiter-Glo, 40 h; series mostly up to 66.8 µM; note: nearly all actives have a fitted effect of over 60% in size
Results filed as inconclusive are left out. Activity calls are given as the source filed them. Calls come from the whole dose curve; as a rule, active = well fitted cell-killing curve with a large enough effect in the repeat runs; inconclusive = weak or mixed curves; inactive = no such curve, though single readings can be large or run the other way.
Classes used: True (active), False (inactive)

INSERT INTO measurements (compound, assigned_label) VALUES
  ('NC(Cc1ccc(F)cc1)C(=O)O (centres undefined)', 'True'),
  ('CC[C@H]1CC[C@H](NCc2cc3c(cc2OC)[C@H]2C[C@H]2C(=O)N3C)[C@H](c2ccccc2)N1', 'True'),
  ('CCCCNCCCC', 'False'),
  ('CC(C)Nc1nc(N)nc(Cl)n1', 'False');

====

assay: qHTS assay for small molecules that induce genotoxicity in human embryonic kidney cells expressing luciferase-tagged ATAD5 - cell viability (AID 651634); details: HEK293T ATAD5-luc cells viability, CellTiter-Fluor, 15.5 h; series mostly up to 83.3 µM; note: nearly all actives have a fitted effect of over 25% in size
Inconclusive results are not listed. The source made the active and inactive calls. The call rests on the fitted dose curve.
Classes used: 1.0 = active, 0.0 = inactive

INSERT INTO measurements (molecule, assigned_label) VALUES
  ('Cc1ccccc1C(=O)Nc1ccc(C(=O)N2CCCC(O)c3cc(Cl)ccc32)c(C)c1 (configuration not stated)', 0.0),
  ('OCCN1CCN(CCO)CC1', 0.0),
  ('CCCNC(C)(C)COC(=O)c1ccccc1', 0.0),
  ('O=C(O)C(=O)Cc1c[nH]c2ccccc12', 0.0),
  ('OCc1c2ccccc2cc2ccccc12', 0.0),
  ('CCN(O)CC', 0.0),
  ('CC(C)(CO)[C@@H](O)C(=O)NCCC(=O)O', 0.0),
  ('O=C(O)[C@@H]1CSCN1', 0.0),
  ('CCN(CCCc1ccccc1)CCCc1ccccc1', 0.0),
  ('CC1=CC(=O)CC(C)(C)C1=O', 0.0),
  ('CCN1CC(CCN2CCOCC2)C(c2ccccc2)(c2ccccc2)C1=O (configuration not stated)', 0.0),
  ('Cc1cc(S(=O)(=O)O)c(N)cc1Cl', 0.0),
  ('C=CCCC=C', 0.0),
  ('CN1C(=O)CC(c2ccccc2)C1=O (configuration not stated)', 0.0),
  ('CCOc1ccc(NC(N)=O)cc1', 0.0),
  ('CCCCNCCCC', 0.0),
  ('CC(C)O', 0.0),
  ('CC(C)=CCCC(C)CCOC=O (configuration not stated)', 1.0),
  ('CCCCc1ccc2nc(NC(=O)OC)[nH]c2c1', 1.0),
  ('ClC(Cl)Cl', 0.0),
  ('CCCCCCC', 0.0),
  ('O=C(O)c1ccccc1Nc1cc(Cl)ccc1C(=O)O', 0.0),
  ('C[C@@H](N)C(=O)O', 0.0),
  ('Clc1cccc(-c2cc(Cl)cc(Cl)c2)c1', 0.0),
  ('CCCCN1C[C@H](O)[C@@H](O)[C@H](O)[C@H]1CO', 0.0),
  ('CCN(CC)CCOc1ccc(Cc2ccccc2)cc1', 0.0),
  ('O=CCCc1ccccc1', 0.0),
  ('Cc1ccc(C)c(N)c1', 0.0),
  ('CC(C)S', 0.0),
  ('Cc1ccc(C=O)s1', 0.0),
  ('CN1[C@@H]2CC[C@H]1CC(OC(=O)c1c[nH]c3ccccc13)C2 (some centres not stated)', 0.0),
  ('OC[C@H]1O[C@@H](O[C@H]2[C@H](O)[C@@H](O)[C@H](O)O[C@@H]2CO)[C@H](O)[C@@H](O)[C@H]1O', 0.0),
  ('CC(C)OC(C)C', 0.0),
  ('O=C1CCC(C2CCCCC2)CC1', 0.0),
  ('C=Cc1ccccc1', 0.0),
  ('C[C@@H]1CN(c2c(F)c(F)c3c(=O)c(C(=O)O)cn(C4CC4)c3c2F)C[C@H](C)N1', 0.0),
  ('O=C(O)[C@@H](O)[C@H](O)[C@H](O)[C@@H](O)C(=O)O', 0.0),
  ('C=C(C)C(=O)OCCOP(=O)(O)O', 0.0),
  ('CCc1nnc(NS(=O)(=O)c2ccc(N)cc2)s1', 0.0),
  ('Cc1ccc(C(C)C)cc1O', 0.0),
  ('C=CCc1cc(OC)c(O)c(C(=O)NCCO)c1', 0.0),
  ('C[C@]12C(=O)OC(=O)[C@H]1[C@H]1C=C[C@@H]2C1', 0.0),
  ('OCCN(CCO)c1ccccc1', 0.0),
  ('CC(C)c1ccccc1', 0.0),
  ('CN(C)CCOc1ccccc1Cc1ccccc1', 0.0),
  ('CO[C@@]1(NC(=O)CSCC#N)C(=O)N2C(C(=O)O)=C(CSc3nnnn3C)CS[C@@H]21', 0.0),
  ('Cc1ncc(CO)c(CN)c1O', 0.0);
